Target: recombinant SARS-CoV-2 RBD with C-terminal AviTag (SARS-CoV-2, UniProt P0DTC2 319-541)
Experiment: ELISA, competition with coated ACE2-Fc for RBD [Cont. 9]
# if measured IC50 < 50 nM: yes (1)  # else: no (0)

These recorded examples may help you get a feel for the data.
>  <Binder>
PP1114 MBP-5HVZ-PAPA-RN-30-H6 (VHH, Form: Dimer) VHH: QVQLVESGGGLVQPGGSLRLSCAASGIPASYLNMHWFRQAPGKQREWVAGAGGTNSNYYQDSVKGRFTISRDNAKNTVYLQMNSLKPEDTAVYYCAALDGAESYDYVYPVWGQGTQVTVSS

>  <Answer label>
yes (1)

$$$$
>  <Binder>
PP1106 MBP-5HVZ-PAPA-RN-21-H6 (VHH, Form: Dimer) VHH: QVQLVESGGGLVQPGGSLRLSCAASGLQTSDNAMHWFRQAPGKNRELVAGLTSGTSRNYGDSVKGRFTISRDNAKNTVYLQMNSLKPEDTAVYYCAAFPDVGDASSIGFVYWGQGTQVTVSS

>  <Answer label>
yes (1)

$$$$
>  <Binder>
PP1110 MBP-5HVZ-PAPA-RN-26-H6 (VHH, Form: Dimer) VHH: QVQLVESGGGLVQPGGSLRLSCAASGSISSINSMHWYRQAPGKEREWVAAVSSYGSDYYADSVKGRFTISRDNAKNTVYLQMNSLKPEDTAVYYCAARTVTGFTYGDYWGQGTQVTVSS

>  <Answer label>
no (0)

$$$$
>  <Binder>
PP1115 MBP-5HVZ-PAPA-RN-31-H6 (VHH, Form: Dimer) VHH: QVQLVESGGGLVQPGGSLRLSCAASGSTGSDYAMHWFRQAPGKDREWVAGISSYGSDSYGDSVKGRFTISRDNAKNTVYLQMNSLKPEDTAVYYCAALQASAGAGYYYDYWGQGTQVTVSS

>  <Answer label>
yes (1)

$$$$
>  <Binder>
PP1103 MBP-5HVZ-PAPA-RN-18-H6 (VHH, Form: Dimer) VHH: QVQLVESGGGLVQPGGSLRLSCAASGYYFQIVAMHWYRQAPGKEREGVAGITSTGSTYYGDSVKGRFTISRDNAKNTVYLQMNSLKPEDTAVYYCNAVSTDAQGAAEYWGQGTQVTVSS

>  <Answer label>
no (0)

$$$$
>  <Binder>
PP1107 MBP-5HVZ-PAPA-RN-22-H6 (VHH, Form: Dimer) VHH: QVQLVESGGGLVQPGGSLRLSCAASGSISEINLLHWFRQAPGKQREWVATMTSGGSTDYADSVKGRFTISRDNAKNTVYLQMNSLKPEDTAVYYCAADEFTKYGHGRYWGQGTQVTVSS

>  <Answer label>
yes (1)

$$$$

Please indicate whether the reported IC50 of PP1111 MBP-5HVZ-PAPA-RN-27-H6 (VHH, Form: Dimer) VHH: QVQLVESGGGLVQPGGSLRLSCAASGPQFSSNAVSWFRQAPGKEREWVAGITSGGSTDYADSVKGRFTISRDNAKNTVYLQMNSLKPEDTAVYYCTAPSVSDADRRTRDYWGQGTQVTVSS is strictly below 50 nM.
yes (1)

Please indicate whether the reported IC50 of PP1108 MBP-5HVZ-PAPA-RN-23-H6 (VHH, Form: Dimer) VHH: QVQLVESGGGLVQPGGSLRLSCAASGGEKSISAAHWYRQAPGKEREFVAAITAASTTSYADSVKGRFTISRDNAKNTVYLQMNSLKPEDTAVYYCTAVLYDSYDYWGQGTQVTVSS is strictly below 50 nM.
no (0)
